Conditions: in cyclohexane, 318.15 K
OBSERVABLE: solubility (mole fraction)
The reply should be a number, written without any unit.

Record O=C(Nc1ccc(Cl)cc1)Nc1ccc(Cl)c(Cl)c1 . Reported solubility (mole fraction): 2.72e-06

====

Conditions: in 1,4-dioxane, 288.15 K
OBSERVABLE: solubility (mole fraction)
The reply should be a number, written without any unit.

Record O=C(Nc1ccc(Cl)cc1)Nc1ccc(Cl)c(Cl)c1 . Reported solubility (mole fraction): 0.00103

====

Details: in cyclohexane, 298.15 K
OBSERVABLE: solubility (mole fraction)
The reply should be a number, written without any unit.

Record O=C(Nc1ccc(Cl)cc1)Nc1ccc(Cl)c(Cl)c1 . Reported solubility (mole fraction): 4.23e-07

====

Settings: in 1,4-dioxane, 293.15 K
OBSERVABLE: solubility (mole fraction)
The reply should be a number, written without any unit.

Record O=C(Nc1ccc(Cl)cc1)Nc1ccc(Cl)c(Cl)c1 . Reported solubility (mole fraction): 0.00176

====

Details: in cyclohexane, 288.15 K
OBSERVABLE: solubility (mole fraction)
The reply should be a number, written without any unit.

Record O=C(Nc1ccc(Cl)cc1)Nc1ccc(Cl)c(Cl)c1 . Reported solubility (mole fraction): 1.68e-07

====

Details: in 1,4-dioxane, 313.15 K
OBSERVABLE: solubility (mole fraction)
The reply should be a number, written without any unit.

Record O=C(Nc1ccc(Cl)cc1)Nc1ccc(Cl)c(Cl)c1 . Reported solubility (mole fraction): 0.00931

====

Details: in cyclohexane, 293.15 K
OBSERVABLE: solubility (mole fraction)
The reply should be a number, written without any unit.

Record O=C(Nc1ccc(Cl)cc1)Nc1ccc(Cl)c(Cl)c1 . Reported solubility (mole fraction): 2.73e-07

====

Details: in cyclohexane, 303.15 K
OBSERVABLE: solubility (mole fraction)
The reply should be a number, written without any unit.

Record O=C(Nc1ccc(Cl)cc1)Nc1ccc(Cl)c(Cl)c1 . Reported solubility (mole fraction): 7.31e-07

====

Conditions: in 1,4-dioxane, 298.15 K
OBSERVABLE: solubility (mole fraction)
The reply should be a number, written without any unit.

Record O=C(Nc1ccc(Cl)cc1)Nc1ccc(Cl)c(Cl)c1 . Reported solubility (mole fraction): 0.00239

====

Conditions: in 1,4-dioxane, 308.15 K
OBSERVABLE: solubility (mole fraction)
The reply should be a number, written without any unit.

Record O=C(Nc1ccc(Cl)cc1)Nc1ccc(Cl)c(Cl)c1 . Reported solubility (mole fraction): 0.00658

====

Settings: in cyclohexane, 308.15 K
OBSERVABLE: solubility (mole fraction)
The reply should be a number, written without any unit.

Record O=C(Nc1ccc(Cl)cc1)Nc1ccc(Cl)c(Cl)c1 . Reported solubility (mole fraction): 1.17e-06
